Cited source: PubChem BioAssay AID2060487

# viability, T/C per entry
Tested on: 997537-175-T-J1-PDC complex spheroid viability
Experiment: Anticancer human tumor 997537-175-T-J1-PDC patient-derived colon adenocarcinoma cell line growth inhibition [GQUAD]
Details: second compound 1 µM; first compound 3.16 µM; stronger effect = lower value
Quantity Name: viability, T/C (%)

{"Compound": "COc1cc(C2c3cc4c(cc3C(OC3OC5COC(C)OC5C(O)C3O)C3COC(=O)C23)OCO4)cc(OC)c1O (stereo not given) + CN(C)c1ccc(Nc2c3ccc(NC(=O)CCN4CCCC4)cc3nc3cc(NC(=O)CCN4CCCC4)ccc23)cc1", "Units": "%", "Quantitative Readout": 91.2}
{"Compound": "C=CC(=O)N1CCN(c2nc(=O)n(-c3c(C)ccnc3C(C)C)c3nc(-c4c(O)cccc4F)c(F)cc23)C(C)C1 (stereo not given) + Cc1[nH]c2ccc(F)cc2c1-c1nc2c3cccnc3c3ncccc3c2[nH]1", "Units": "%", "Quantitative Readout": 90.2}
{"Compound": "CC(C)(O)C1CCC(Nc2ccc3ncc(-c4cccc(C(F)(F)F)c4)n3n2)CC1 (stereo not given) + Cc1cnc(CNC(=O)c2c(=O)c3ccc(N4CCCN(C)CC4)nc3n3c2sc2ccccc23)cn1", "Units": "%", "Quantitative Readout": 35.4}
{"Compound": "Nc1ccn(C2OC(CO)C(O)C2(F)F)c(=O)n1 (stereo not given) + Cc1[nH]c2ccc(F)cc2c1-c1nc2c3cccnc3c3ncccc3c2[nH]1", "Units": "%", "Quantitative Readout": 82.6}
{"Compound": "COc1ccc([C@@H](O)c2cc(-c3ncnc4cc(N5CCOCC5)ccc34)c(F)cc2Cl)nn1 + Cc1cnc(CNC(=O)c2c(=O)c3ccc(N4CCCN(C)CC4)nc3n3c2sc2ccccc23)cn1", "Units": "%", "Quantitative Readout": 98.1}

###

System: 997537-175-T-J1-PDC complex spheroid viability
Test: Anticancer human tumor 997537-175-T-J1-PDC cell line growth inhibition [GQUAD];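 further: spheroids exposed to the agents for 7 days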;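 on viability, T/C: 100% = DMSO vehicle control viability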
Details: second compound 0.316 µM; first compound 3.16 µM; stronger effect = lower value
# viability, T/C per entry

{"Compound": "COc1cc(C2c3cc4c(cc3C(OC3OC5COC(C)OC5C(O)C3O)C3COC(=O)C23)OCO4)cc(OC)c1O (centres undefined) + Cc1[nH]c2ccc(F)cc2c1-c1nc2c3cccnc3c3ncccc3c2[nH]1", "Units": "%", "viability, T/C": 91}
{"Compound": "O=C(NO)c1cnc(N2CCN(S(=O)(=O)c3ccc4ccccc4c3)CC2)nc1 + CN(C)c1ccc(Nc2c3ccc(NC(=O)CCN4CCCC4)cc3nc3cc(NC(=O)CCN4CCCC4)ccc23)cc1", "Units": "%", "viability, T/C": 30.8}
{"Compound": "O=C(c1cc(Cc2n[nH]c(=O)c3ccccc23)ccc1F)N1CCN(C(=O)C2CC2)CC1 + Cc1cnc(CNC(=O)c2c(=O)c3ccc(N4CCCN(C)CC4)nc3n3c2sc2ccccc23)cn1", "Units": "%", "viability, T/C": 95.5}
{"Compound": "COc1ccc([C@@H](O)c2cc(-c3ncnc4cc(N5CCOCC5)ccc34)c(F)cc2Cl)nn1 + Cc1cnc(CNC(=O)c2c(=O)c3ccc(N4CCCN(C)CC4)nc3n3c2sc2ccccc23)cn1", "Units": "%", "viability, T/C": 113}

###

System: 997537-175-T-J1-PDC complex spheroid viability
Assay: Anticancer human tumor 997537-175-T-J1-PDC cell line growth inhibition [GQUAD];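 further: spheroids exposed to the agents for 7 days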
Conditions: curve of first compound; second compound 1 µM
pIC50: −log10 of the molar value.
Quantity Name: pIC50

{"Compound": "CC(C)n1c(=O)n(C)c2cnc3cc(F)c(-c4ccc(OCCCN5CCCCC5)nc4)cc3c21 + CN(C)c1ccc(Nc2c3ccc(NC(=O)CCN4CCCC4)cc3nc3cc(NC(=O)CCN4CCCC4)ccc23)cc1", "Result": "< 5.00"}
{"Compound": "CC[C@@]1(O)C(=O)OCc2c1cc1n(c2=O)Cc2cc3c(CN(C)C)c(O)ccc3nc2-1 + Cc1cnc(CNC(=O)c2c(=O)c3ccc(N4CCCN(C)CC4)nc3n3c2sc2ccccc23)cn1", "Result": "< 6.50"}
{"Compound": "Nc1ccn(C2OC(CO)C(O)C2(F)F)c(=O)n1 (centres undefined) + Cc1cnc(CNC(=O)c2c(=O)c3ccc(N4CCCN(C)CC4)nc3n3c2sc2ccccc23)cn1", "Result": "< 5.00"}
{"Compound": "COc1ncnc(C2CC2)c1-c1ncc2cnn(Cc3ccc(-c4nc(C(F)(F)F)cn4C(C)C)cc3)c2n1 + Cc1cnc(CNC(=O)c2c(=O)c3ccc(N4CCCN(C)CC4)nc3n3c2sc2ccccc23)cn1", "Result": "< 5.00"}

###

# viability, T/C per entry
Test system: 997537-175-T-J1-PDC complex spheroid viability
Assay: Anticancer human tumor 997537-175-T-J1-PDC cell line growth inhibition [GQUAD];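 further: spheroids exposed to the agents for 7 days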;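 on viability, T/C: 100% = DMSO vehicle control viability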
Details: second compound 1 µM; first compound 0.316 µM; stronger effect = lower value

{"Compound": "COc1ncnc(C2CC2)c1-c1ncc2cnn(Cc3ccc(-c4nc(C(F)(F)F)cn4C(C)C)cc3)c2n1 + Cc1cnc(CNC(=O)c2c(=O)c3ccc(N4CCCN(C)CC4)nc3n3c2sc2ccccc23)cn1", "Units": "%", "viability, T/C": 100}
{"Compound": "CC1COCCN1c1cc(-c2ccnn2C)c2ccnc(-c3ccn[nH]3)c2n1 (stereo not given) + Cc1[nH]c2ccc(F)cc2c1-c1nc2c3cccnc3c3ncccc3c2[nH]1", "Units": "%", "viability, T/C": 51.6}
{"Compound": "O=C(c1cc(Cc2n[nH]c(=O)c3ccccc23)ccc1F)N1CCN(C(=O)C2CC2)CC1 + CN(C)c1ccc(Nc2c3ccc(NC(=O)CCN4CCCC4)cc3nc3cc(NC(=O)CCN4CCCC4)ccc23)cc1", "Units": "%", "viability, T/C": 77.6}
{"Compound": "O=C(NO)c1cnc(N2CCN(S(=O)(=O)c3ccc4ccccc4c3)CC2)nc1 + Cc1cnc(CNC(=O)c2c(=O)c3ccc(N4CCCN(C)CC4)nc3n3c2sc2ccccc23)cn1", "Units": "%", "viability, T/C": 104}
{"Compound": "CC(C)n1c(=O)n(C)c2cnc3cc(F)c(-c4ccc(OCCCN5CCCCC5)nc4)cc3c21 + Cc1[nH]c2ccc(F)cc2c1-c1nc2c3cccnc3c3ncccc3c2[nH]1", "Units": "%", "viability, T/C": 91.1}
